Test details: Inhibition of advanced glycation end product formation in phosphate buffered saline at pH 7.4 after 14 days by fluorospectrophotometry
Format: physicochemical
pIC50: −log10 of the molar value.
Quantity kind: pIC50

1. CC(=O)Oc1cc(OCC(=O)OCc2cccc(OCc3c(-c4ccccc4)no[n+]3[O-])c2)cc2oc(-c3ccccc3)cc(=O)c12; 4.58
2. O=c1cc(-c2ccccc2)oc2cc(O)cc(O)c12; 4.20
3. N=C(N)NN; 3.08

###

pIC50: −log10 of the molar value.
pIC50, Aldo-keto reductase family 1 member B1 (Homo sapiens, UniProt P15121): measured values
Quantity kind: pIC50

1. O=C(COc1cc(O)c2c(=O)cc(-c3ccccc3)oc2c1)OCc1cccc(OCc2c(-c3ccccc3)no[n+]2[O-])c1; 6.66
2. O=c1cc(-c2ccccc2)oc2cc(O)cc(O)c12 [CHRYSIN]; 5.11
3. O=C(COc1cc(O)c2c(=O)cc(-c3ccccc3)oc2c1)OCc1c(-c2ccccc2)no[n+]1[O-]; 6.12
4. CC(=O)Oc1cc(OCC(=O)OCc2ccc(OCc3c(-c4ccccc4)no[n+]3[O-])cc2)cc2oc(-c3ccccc3)cc(=O)c12; 5.71
